Test system: UACC-257 melanoma
experimental-protocol: NCI tumour cell line growth inhibition, 48 h; in the data active = GI50 below about 0.43 µM; inactive = the rest
Classes used: active, inactive

compound=Cc1ccc(-c2nc([P+](c3ccccc3)(c3ccccc3)c3ccccc3)c(Nc3ccccc3)o2)cc1 cat=inactive
compound=CCS(=O)(=O)c1ccc(OC)c(Nc2ncc(-c3ccccc3Cl)o2)c1 cat=inactive
compound="COc1ccc(C(CC(=O)c2ccccc2)C(C(=O)c2ccccc2)C(c2ccc(OC)cc2)C2C(=O)NC(=S)NC2=O)cc1 (stereo not given)" cat=inactive
compound=COc1ccc(N(/C=C/C(=O)C(F)(F)F)CC(=O)c2ccc(Cl)cc2)cc1 cat=inactive
compound=O=C(C[P+](c1ccccc1)(c1ccccc1)c1ccccc1)C[P+](c1ccccc1)(c1ccccc1)c1ccccc1 cat=active
compound=CCOC(=O)c1cnn2c3ccccc3n(S(=O)(=O)c3ccc(OC)cc3)c12 cat=inactive
compound=Nc1nc(=O)n([C@@H]2CS[C@H](CO)O2)cc1F cat=inactive
compound=C[C@@H]1COCCN1c1cc(C2([S@@](C)(=N)=O)CC2)nc(-c2ccnc3[nH]ccc23)n1 cat=inactive
compound=Cc1cc(Cl)ccc1Nc1nc(C(F)(F)F)ccc1C(=O)N/N=C/c1ccccc1Cl cat=inactive
compound=CCOC(=O)c1ccc2c(c1)[n+](=O)c(C(C)=O)c(C(F)(F)F)n2[O-] cat=inactive

---

System: MOLT-4 leukemia
experimental-protocol: NCI tumour cell line growth inhibition, 48 h; in the data active means GI50 below about 0.43 µM; inactive means the rest
Possible outcomes: active, inactive

compound=O=C(NCc1ccco1)c1cccc(NC2=C(Cl)C(=O)N(Cc3ccccc3)C2=O)c1 cat=inactive
compound=Cc1ccc(-c2nc([P+](c3ccccc3)(c3ccccc3)c3ccccc3)c(Nc3ccccc3)o2)cc1 cat=inactive
compound="CC1=C(C)C2(O)C(=C(C)C1=O)/C(=C(/O)c1ccccc1)c1nc3ccccc3n12 (centres undefined)" cat=inactive
compound=COc1cc(/C=C/c2cc(/C=C/c3ccc(O)c(OC)c3)n(C(=O)Nc3ccc(Cl)cc3)n2)ccc1O cat=active
compound="c1ccc([As]=[As]c2ccccc2)cc1 (centres undefined)" cat=inactive
compound=O=c1oc2ccc(-c3ccc(F)cc3F)cc2c(=O)n1-c1ccc(Cl)c(C(F)(F)F)c1 cat=inactive
compound=C[C@@H]1COCCN1c1cc(C2([S@@](C)(=N)=O)CC2)nc(-c2ccnc3[nH]ccc23)n1 cat=inactive
compound=NC(=Nc1ccc(N)cc1)C(N)=Nc1ccc(N)cc1 cat=inactive
compound=Cc1c(C(N)=O)sc2c1c(=O)n(Cc1ccccc1)c1nnc(-c3ccc(Br)cc3)n21 cat=inactive

---

As shown below, each of these molecules has a reported TGI value.
System: 786-0 renal
experimental-protocol: NCI tumour cell line growth inhibition, 48 h
readout-kind: TGI

molecule=C#CCN(C(=O)C(F)(F)F)c1ccc(C(=O)c2ccc(N(CC#C)C(=O)C(F)(F)F)cc2)cc1 result="> 100 µM"
molecule=Cc1cc(O)c(/C=N/C(=S)Nc2ccccc2)c(=O)o1 result="> 100 µM"
molecule=Cc1cnc(Nc2ccc(N3CCN(C)CC3)cc2)nc1Nc1ccc(Cl)c(NS(=O)(=O)C(C)(C)C)c1 result="1.82 µM"
molecule="CCC(O)c1ccc(N=Cc2ccccc2O)cc1 (stereo not given)" result="> 100 µM"
molecule="O=C1c2ccccc2C(=O)c2c(NCC3CO3)ccc(NCC3CO3)c21 (stereo not given)" result="5.57 µM"
molecule=CCCC1(CCC)c2cc(/C=N\O)ccc2-c2ccc(-c3ccc(C(C)(C)C)cc3)cc21 result="> 100 µM"
molecule="CC12CCC3c4cc(Br)c(O)c(Br)c4CCC3C1CCC2O (stereo not given)" result="42 µM"
molecule=COc1ccc2nc3n(c2c1)C(=O)c1ccccc1-3 result="> 100 µM"
molecule="C=CCOC(=O)C1CCC(=O)N1C(=O)C(Cl)Cl (stereo not given)" result="> 100 µM"
molecule="COc1ccc(C(CC(=O)c2ccccc2)C(C(=O)c2ccccc2)C(c2ccc(OC)cc2)C2C(=O)NC(=S)NC2=O)cc1 (stereo not given)" result="> 100 µM"
molecule=Cc1cccc(C)c1Nc1nc(C)c(C(=O)CC(=O)C(=O)Nc2c(C(C)C)cccc2C(C)C)s1 result="> 100 µM"
molecule=O=C(OC/C=C1C=C(OC(=O)c2ccccc2)/C(=N/N(C(=O)c2ccccc2)c2ccccc2)O\1)c1ccccc1 result="2.95 µM"
molecule=Nc1nc(=O)n([C@@H]2CS[C@H](CO)O2)cc1F result="> 100 µM"
molecule="O=c1[nH]c(=O)n(C2CC(O)C(CO)O2)cc1C#Cc1ccc(F)cc1 (stereo not given)" result="> 100 µM"
molecule=O=S(=O)(Nc1ccc(F)c(Cl)c1)c1ccc(-c2cnc(C3CC3)o2)cc1 result="13.1 µM"
molecule="CNC(=O)OC(COC)CN1CCN(c2ccccc2C)CC1 (stereo not given)" result="> 10 µM"
molecule=C=C1C(=O)O[C@H]2[C@H]1CC/C(COC(=O)NCCc1c[nH]c3ccc(Cl)cc13)=C\CC[C@@]1(C)O[C@@H]21 result="2.79 µM"
molecule="COc1nc2c(c(=O)n1C)N=C(c1ccc(Cl)cc1)CC(c1ccccc1)N2 (stereo not given)" result="> 100 µM"
molecule="COc1cccc(C2C3=C(COC3=O)N(CCO)c3cc4c(cc32)OCO4)c1 (stereo not given)" result="> 50 µM"
molecule=COc1ccc(C(=O)N/N=C/c2c(C)n(C)n(-c3ccccc3)c2=O)cc1 result="> 100 µM"
